Assignment: determine reported glycan array binding signal (z-score) for the given binders.
- target-desc: Gal(a1-3)Gal(b1-4)GlcNAc(b1-3)GalNAc
- method-notes: glycan array binding signal (z-score within array); higher = stronger binding
- assay-conditions: glycan notation: IUPAC condensed, linker removed
This excerpt belongs to a sample that is enriched for the strongest signals.
Answers are plain numbers.

- binder: "Mincle (Bos taurus) (protein) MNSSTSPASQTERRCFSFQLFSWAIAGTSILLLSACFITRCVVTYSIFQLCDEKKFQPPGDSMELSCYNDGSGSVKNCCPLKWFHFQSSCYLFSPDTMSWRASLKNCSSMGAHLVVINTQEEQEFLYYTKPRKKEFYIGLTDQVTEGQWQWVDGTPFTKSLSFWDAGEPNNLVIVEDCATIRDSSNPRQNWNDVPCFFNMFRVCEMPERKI"
  glycan array binding signal (z-score): -0.713

Give glycan array binding signal (z-score) for each of the items listed below.
1. CGL (Crenomytilus grayanus), H2FH31 (protein) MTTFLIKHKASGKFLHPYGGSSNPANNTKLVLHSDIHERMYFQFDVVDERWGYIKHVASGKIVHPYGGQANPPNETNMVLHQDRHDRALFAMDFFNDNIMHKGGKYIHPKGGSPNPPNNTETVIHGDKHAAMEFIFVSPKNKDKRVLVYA
2. pTFF2 (Sus scrofa), P01359 (protein) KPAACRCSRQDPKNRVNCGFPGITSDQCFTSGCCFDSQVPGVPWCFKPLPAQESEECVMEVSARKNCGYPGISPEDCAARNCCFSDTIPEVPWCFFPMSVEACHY
3. PhypaEULS3 (Physcomitrella patens) (protein) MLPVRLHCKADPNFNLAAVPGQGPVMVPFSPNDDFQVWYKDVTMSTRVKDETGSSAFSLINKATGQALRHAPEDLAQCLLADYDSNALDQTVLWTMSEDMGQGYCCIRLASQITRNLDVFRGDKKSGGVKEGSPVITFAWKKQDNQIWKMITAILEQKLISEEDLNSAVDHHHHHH

3.54
0.196
3.21

Entry source: the supplement of paper PMC8728848
